Target: NR2B (Homo sapiens)
Construct: host or cells: HEK293 or CHO
Sequence (Q13224 27-1484, other chains not shown): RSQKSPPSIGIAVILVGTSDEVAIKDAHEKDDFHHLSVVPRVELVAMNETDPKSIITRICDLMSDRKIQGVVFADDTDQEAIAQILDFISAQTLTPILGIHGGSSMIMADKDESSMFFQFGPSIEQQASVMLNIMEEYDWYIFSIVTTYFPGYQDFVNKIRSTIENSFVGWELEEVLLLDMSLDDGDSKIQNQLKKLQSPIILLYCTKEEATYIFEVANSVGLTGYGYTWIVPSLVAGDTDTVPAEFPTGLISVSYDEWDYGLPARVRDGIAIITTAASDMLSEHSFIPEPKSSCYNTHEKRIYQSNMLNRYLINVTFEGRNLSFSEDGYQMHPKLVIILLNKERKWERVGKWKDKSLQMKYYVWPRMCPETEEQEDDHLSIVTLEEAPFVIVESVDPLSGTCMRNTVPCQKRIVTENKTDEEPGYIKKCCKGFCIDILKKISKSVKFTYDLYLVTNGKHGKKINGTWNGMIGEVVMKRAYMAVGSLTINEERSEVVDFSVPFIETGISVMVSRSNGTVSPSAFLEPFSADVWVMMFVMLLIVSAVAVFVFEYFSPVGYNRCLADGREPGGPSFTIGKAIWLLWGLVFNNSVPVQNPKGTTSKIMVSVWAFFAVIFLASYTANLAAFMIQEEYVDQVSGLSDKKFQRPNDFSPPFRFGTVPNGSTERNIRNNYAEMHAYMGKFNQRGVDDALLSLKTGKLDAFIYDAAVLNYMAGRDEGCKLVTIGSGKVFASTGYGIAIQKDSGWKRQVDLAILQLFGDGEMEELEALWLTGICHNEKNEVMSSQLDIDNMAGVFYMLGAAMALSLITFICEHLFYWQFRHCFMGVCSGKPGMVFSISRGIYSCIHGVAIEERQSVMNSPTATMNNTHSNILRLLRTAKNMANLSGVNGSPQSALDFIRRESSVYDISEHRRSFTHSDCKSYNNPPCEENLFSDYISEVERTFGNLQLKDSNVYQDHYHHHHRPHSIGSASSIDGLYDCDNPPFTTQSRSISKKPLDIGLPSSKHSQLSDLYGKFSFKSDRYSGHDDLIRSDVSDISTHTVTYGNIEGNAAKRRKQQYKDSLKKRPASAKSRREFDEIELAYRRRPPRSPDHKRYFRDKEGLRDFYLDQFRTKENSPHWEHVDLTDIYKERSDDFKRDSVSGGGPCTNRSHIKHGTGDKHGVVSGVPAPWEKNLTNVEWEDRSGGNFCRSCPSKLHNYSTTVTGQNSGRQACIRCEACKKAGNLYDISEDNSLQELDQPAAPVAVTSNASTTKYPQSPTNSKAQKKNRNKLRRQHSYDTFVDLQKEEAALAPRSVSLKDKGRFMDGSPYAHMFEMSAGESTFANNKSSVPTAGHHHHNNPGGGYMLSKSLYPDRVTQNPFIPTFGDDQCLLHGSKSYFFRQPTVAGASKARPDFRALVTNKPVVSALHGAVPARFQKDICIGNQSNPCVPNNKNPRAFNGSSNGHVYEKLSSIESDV
Assay: Ion channel panel (IonWorks Barracuda): NR2B
Assay type: cell-based
Conditions: peptide at 0.2 μM; 100% = no change, <100% = inhibition
Examples of substances with documented Activity of NR2B with peptide, expressed as a percentage of the reference compound follow.
Write the answer as a number in %, unit excluded.

So what's the measured Activity of NR2B with peptide, expressed as a percentage of the reference compound for this one? 13 (GSQKILSNRCNNSSECIPHCIRIFGTRAAKCINRKCYCYP) [compound 13]
122

Same question, 30 (GSQVSTNKKCSNTSQCYKTCEKVVGVAAGKCMNGKCICYP) [compound 30] this time
92

Same question, 5 (GSGVPINVKCRGSRDCLDPCKKAGMRFGKCINSKCHCTP) [compound 5] this time
112

Same question, 20 (GSQIDTNVKCSGSSKCVKICIDRYNTRGAKCINGRCTCYP) [compound 20] this time
104
